FYI, the data here is from patent US20240383993A1.

Provide the recorded pEC50 for the entries that follow.
# target desc: T1, cynomolgus 4-1BB overexpressed on CHO-K1 cells (cynomolgus, UniProt A9YYE7 24-254)
# T1 construct: whole, on cells; also called CHO-K1/Cyno-41BB; cell surface cyno 4-1BB
# T1 sequence (A9YYE7 entry or part of it): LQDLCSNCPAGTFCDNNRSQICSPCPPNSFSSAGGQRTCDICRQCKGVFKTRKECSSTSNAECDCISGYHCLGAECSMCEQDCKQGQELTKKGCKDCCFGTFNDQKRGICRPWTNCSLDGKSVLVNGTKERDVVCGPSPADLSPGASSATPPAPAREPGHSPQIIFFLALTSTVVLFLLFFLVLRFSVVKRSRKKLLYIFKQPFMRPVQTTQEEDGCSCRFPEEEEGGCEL
# test description: flow cytometry on CHO-K1/Cyno-41BB cells, anti-human Fc-Alexa Fluor 633
pEC50 here is simply -log10 of the concentration when that concentration is written in mol/L.

According to the records, this binder VV02-1LP-263 huNb_2_2 (Fc fusion, not shown: a dimerising Fc or GST, detection by anti-human Fc) VHH: EVQLVESGGGLVQPGGSLRLSCAASGFTFSSSAMSWARQAPGKGLEWVSGIYSGGSTYYTESVKDRFTISRDNAKNTLYLQMNSLRPEDTAVYYCATWGTLRFGVWAEYDHWGQGTLVTVSS displays pEC50 of 9.19

Entry VV02-1LP-263 huNb_3_3 (Fc fusion, detection by anti-human Fc; not shown: Fc part, implied only by the anti-human Fc secondary antibody) VHH: QVQLVESGGGLVQPGGSLRLSCAASGFTFSSSAMSWARQAPGKGFEWVSGIYSGGSTYYTESVKDRFTISRDNAKNSVYLQMNSLKPEDTAVYYCATWGTLRFGVWAEYDHWGQGTQVTVSS — recorded pEC50 = 9.15

binder VV02-1LP-263 huNb_3_2 (Fc fusion, not shown: a dimerising Fc or GST, detection by anti-human Fc) VHH: QVQLVESGGGLVKPGGSLRLSCAASGFTFSSSAMSWARQAPGKGFEWVSGIYSGGSTYYTESVKDRFTISRDNAKNSLYLQMNSLRPEDTAVYYCATWGTLRFGVWAEYDHWGQGTQVTVSS , pEC50 observed: 9.15

Summary for this binder, VV02-1LP-263 huNb_1_2 (Fc fusion, not shown: a dimerising Fc or GST, detection by anti-human Fc) VHH: EVQLLESGGGLVQPGGSLRLSCAASGFTFSSSAMSWARQAPGKGLEWVSGIYSGGSTYYTESVKDRFTISRDNSKNTVYLQMNSLKPEDTAVYYCATWGTLRFGVWAEYDHWGQGTLVTVSS : pEC50 is 9.16

For this binder ( VV02-1LP-263 huNb_1_3 (Fc fusion, not shown: a dimerising Fc or GST, detection by anti-human Fc) VHH: EVQLLESGGGLVQPGGSLRLSCAASGFTFSSSAMSWARQTPGKGFEWVSGIYSGGSTYYTESVKDRFTISRDNSKNTVYLQMNSLKPEDTAVYYCATWGTLRFGVWAEYDHWGQGTQVTVSS ), measured pEC50 is 9.48

Measured pEC50 of VV02-1LP-263 huNb_2_3 (Fc fusion, not shown: a dimerising Fc or GST, detection by anti-human Fc) VHH: EVQLVESGGGLVQPGGSLRLSCAASGFTFSSSAMSWARQAPGKGFEWVSGIYSGGSTYYTESVKDRFTISRDNAKNTVYLQMNSLKPEDTAVYYCATWGTLRFGVWAEYDHWGQGTLVTVSS : 9.43
